B1: TPR 5TU (parent)
chain: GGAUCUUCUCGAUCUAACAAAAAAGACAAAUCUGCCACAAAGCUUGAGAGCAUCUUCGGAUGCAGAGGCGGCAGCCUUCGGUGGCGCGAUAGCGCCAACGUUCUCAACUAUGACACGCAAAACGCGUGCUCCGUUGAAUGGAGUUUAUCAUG

# Variants of: B1
# Test: polymerase ribozyme fitness, log enrichment relative to wild type (log ratio); higher = more active; in vitro selection for triplet polymerase activity
Variants at the floor of the assay were thinned out.
Items are presented alongside their recorded polymerase ribozyme fitness (log ratio).
Endpoint name: polymerase ribozyme fitness (log ratio)

1. A16C G94A C116G    -0.496
2. A47G C114U    -2.4
3. C8U U55A    -2.51
4. A20U G59U G136C G141U    -3.78
5. C32U U61C    -3.52
6. A21G C99U    0.465
7. A60G C123U G124A C131A    -2.39
8. C5U C87U G94C    -2.15
9. A17G A37U A47U C85U    -1.62
10. A23U A30G U45A A97G G100U    -4.19
11. A12G A47C G58C C69A C93A U144C    -3.84
12. A22G C57A G59C A60C    -2.03
13. A22U G88C A147C    -4.19
14. C5G C32U C96U A122G    -3.38
15. A3G U4G C32U U56A G74A G81A A120G    -0.184
16. A19U C85A A113U    -3.44
17. G59C G86U C95U    -2.13
18. A3C G48U C69U    -2.88
19. U45A C57A C96U G124A    -3.11
20. A3C C10G C57A G83A    -3.78
21. U55A U145C    0.505
22. U9G C35A A39G C87A C125U G143A U151A    -3.88
23. A40C A52G U82A G92U A106U    -3.38

The values you see were collected from the RNAGym collection of RNA variant scans (doi:10.1073/pnas.2313332121).
